I'd be grateful if you could share measured fluorescence lifetime for these entries.
Experiment: solvent given as SMILES
Settings: in CCCO
Use ns as the unit, but write only the number.

Query CCNc1cc2oc3c/c(=[NH+]\CC)c(C)cc-3c(-c3ccccc3C(=O)OCC)c2cc1C yields fluorescence lifetime of 3.95

Lab book: fluorescence lifetime of CCOC(=O)c1ccc2c(c1)[se]c1c3ccc(C(=O)OCC)cc3n(C)c21 noted as 0.175

The recorded fluorescence lifetime for O=C1c2ccccc2-c2cccc(O)c21 is 4.82

Sample c1ccc2c(c1)[nH]c1c3ccccc3[nH]c21 ; fluorescence lifetime observed: 5.5

Reported fluorescence lifetime ( O=C([O-])c1ccccc1C1=c2cc3c4c(c2Oc2c1cc1c5c2CCCN5CCC1)CCC[N+]=4CCC3 ) = 4.3

The value of fluorescence lifetime measured for the molecule CCN(CC)c1ccc2nc3c4ccccc4c(=O)cc-3oc2c1 turned out to be 3.8

fluorescence lifetime reading for CCN(CC)c1ccc2c(c1)OC1=CC(N(CC)CC)C=CC1[C+]2c1ccccc1C(=O)O (stereo unspecified) : 2.79

fluorescence lifetime in this record for C#CCNC1=C2C=CC=[N+]2[B-](F)(F)n2cccc21 : 5.16

The molecule listed as c1ccc(-c2cc(-c3ccc4ccc5cccc6ccc3c4c56)ccn2)nc1 shows fluorescence lifetime equal to 3.5

For this molecule ( COc1ccc2c(=O)c3c([nH]c2c1)-c1cc(Cl)ccc1NC3(C)C ), measured fluorescence lifetime is 9.91

# fluorescence lifetime (molecule: COC(=O)c1c2ccccc2nc2ccccc12 ) is 0.7
